B1: KRT13 (parent)
chain: KTIEELRDKILTATIENNRVILEI

Variants of: B1
Assay: protein stability index of a GFP-peptide fusion (GPS, HEK-293T) (PSI 1-6); higher = more stable;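 note: lentivirally expressed fusions sorted by FACS into six bins by GFP to DsRed ratio, PSI derived from sequencing read proportions per bin multiplied by bin number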
Details: c terminus: a fixed tail appended
Response field class: enum, chosen by comparing protein stability index against bin 1 = under 2, bin 2 = from 2 up to 3, bin 3 = 3 and over

T14P    bin 2
L6E    bin 1
K1P    bin 1
E16A    bin 3
L11C    bin 2
T2Q    bin 3
R7K    bin 1
I24W    bin 2
L22A    bin 2
I3R    bin 1

Dear colleague, I would appreciate it if you could identify the bin for E5V and reply at your convenience.
bin 1

What about T2W ?
bin 3

What about N18I ?
bin 2

What about E5A ?
bin 2

What about L22C ?
bin 2
